Provide the recorded TGI for the entries that follow.
- Test system: COLO 205 colon
- assay: NCI tumour cell line growth inhibition, 48 h

Answered examples (5):
{"compound": "CN(C)CCNC(=O)c1cc2c3cc(Cl)ccc3[nH]c2c2ncccc12", "TGI": "10.5 µM"}
{"compound": "COc1cccc2c1nc(C(F)F)n2-c1nc(-c2ccc(NS(=O)(=O)CCN(C)C)cc2)nc(N2CCOCC2)n1", "TGI": "2.64 µM"}
{"compound": "CC(CN1NC12CCCC2)N1NC12CCCC2 (stereo unspecified)", "TGI": "> 100 µM"}
{"compound": "O=C(O)CN1CCSc2ccccc2CN(CC(=O)O)CCSc2ccccc2C1", "TGI": "> 100 µM"}
{"compound": "CC(C)OC(=O)NCCn1cc(-c2ccccc2)nn1", "TGI": "> 100 µM"}

Query :: Fill in: TGI of C/C=C1/CC(C(=O)OC)N(C(=O)OCc2ccccc2)C1=S (stereo unspecified) is ___
Result :: > 100 µM
